Just for reference, ChEMBL document CHEMBL1961873 is where these values come from.

Assignment: determine reported inhibition for the given molecules.
- study_system: Serine/threonine-protein kinase Nek6 (Homo sapiens)
- applied_conditions: at 1 µM
Write the answer as a number in %, unit excluded.

Missing value: inhibition, Serine/threonine-protein kinase Nek6 (Homo sapiens), entry [O-][S+]1CCN(Cc2ccc(-c3ccc4ncnc(Nc5ccc(OCc6ccccc6)c(Cl)c5)c4c3)o2)CC1 . Fill in?
1.93

Which inhibition is reported with Serine/threonine-protein kinase Nek6 (Homo sapiens) for this entry: O=S(=O)(CCOCc1ccc(-c2ccc3ncnc(Nc4ccc(OCc5cccc(F)c5)c(Cl)c4)c3c2)o1)c1ccccc1 ?
0.7

Return inhibition measured with Serine/threonine-protein kinase Nek6 (Homo sapiens) given this molecule: Nc1nccc(C#Cc2cncnc2Nc2ccc(OCc3cccc(F)c3)c(Cl)c2)n1
-0.89

# returns recorded inhibition (system: Serine/threonine-protein kinase Nek6 (Homo sapiens)) for Cc1cc(O)cc(C)c1/C=C/c1cncc(C(=O)N(C)C)c1
0.38

What inhibition appears in the records for this molecule with Serine/threonine-protein kinase Nek6 (Homo sapiens)? C[C@@H](Oc1cc(-n2cnc3ccc(OC[C@@H](O)CO)cc32)sc1C(N)=O)c1ccccc1Cl
-3.82

Find inhibition (Serine/threonine-protein kinase Nek6 (Homo sapiens)) for the entry NS(=O)(=O)c1ccc(NC=C2C(=O)Nc3ccc4ncsc4c32)cc1
7.78

Requested read-out inhibition, target or system Serine/threonine-protein kinase Nek6 (Homo sapiens), entry O=C1Nc2ccccc2/C1=C/Nc1ccc2[nH]c(=O)[nH]c2c1
4.32

Test system Serine/threonine-protein kinase Nek6 (Homo sapiens); read-out inhibition; what value for c1ccc(Cc2nc3ccc(Nc4ncnc5ccccc45)cc3[nH]2)cc1 ?
4.77

Quick check: inhibition on Serine/threonine-protein kinase Nek6 (Homo sapiens), item COc1cc(/C=N/Nc2ncnc3c2cnn3C(C)C)ccc1O ?
1.52

Form: Entry = NS(=O)(=O)c1ccc(N/N=C2\C(=O)Nc3ccc(Cl)cc32)cc1 | System = Serine/threonine-protein kinase Nek6 (Homo sapiens) | inhibition = ____;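 also: values are mean inhibition of NEK6 from the GSK PKIS screen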
4.93

====

- study_system: Serine/threonine-protein kinase Nek1 (Homo sapiens) (UniProt Q96PY6)
- Sequence (Q96PY6 whole entry): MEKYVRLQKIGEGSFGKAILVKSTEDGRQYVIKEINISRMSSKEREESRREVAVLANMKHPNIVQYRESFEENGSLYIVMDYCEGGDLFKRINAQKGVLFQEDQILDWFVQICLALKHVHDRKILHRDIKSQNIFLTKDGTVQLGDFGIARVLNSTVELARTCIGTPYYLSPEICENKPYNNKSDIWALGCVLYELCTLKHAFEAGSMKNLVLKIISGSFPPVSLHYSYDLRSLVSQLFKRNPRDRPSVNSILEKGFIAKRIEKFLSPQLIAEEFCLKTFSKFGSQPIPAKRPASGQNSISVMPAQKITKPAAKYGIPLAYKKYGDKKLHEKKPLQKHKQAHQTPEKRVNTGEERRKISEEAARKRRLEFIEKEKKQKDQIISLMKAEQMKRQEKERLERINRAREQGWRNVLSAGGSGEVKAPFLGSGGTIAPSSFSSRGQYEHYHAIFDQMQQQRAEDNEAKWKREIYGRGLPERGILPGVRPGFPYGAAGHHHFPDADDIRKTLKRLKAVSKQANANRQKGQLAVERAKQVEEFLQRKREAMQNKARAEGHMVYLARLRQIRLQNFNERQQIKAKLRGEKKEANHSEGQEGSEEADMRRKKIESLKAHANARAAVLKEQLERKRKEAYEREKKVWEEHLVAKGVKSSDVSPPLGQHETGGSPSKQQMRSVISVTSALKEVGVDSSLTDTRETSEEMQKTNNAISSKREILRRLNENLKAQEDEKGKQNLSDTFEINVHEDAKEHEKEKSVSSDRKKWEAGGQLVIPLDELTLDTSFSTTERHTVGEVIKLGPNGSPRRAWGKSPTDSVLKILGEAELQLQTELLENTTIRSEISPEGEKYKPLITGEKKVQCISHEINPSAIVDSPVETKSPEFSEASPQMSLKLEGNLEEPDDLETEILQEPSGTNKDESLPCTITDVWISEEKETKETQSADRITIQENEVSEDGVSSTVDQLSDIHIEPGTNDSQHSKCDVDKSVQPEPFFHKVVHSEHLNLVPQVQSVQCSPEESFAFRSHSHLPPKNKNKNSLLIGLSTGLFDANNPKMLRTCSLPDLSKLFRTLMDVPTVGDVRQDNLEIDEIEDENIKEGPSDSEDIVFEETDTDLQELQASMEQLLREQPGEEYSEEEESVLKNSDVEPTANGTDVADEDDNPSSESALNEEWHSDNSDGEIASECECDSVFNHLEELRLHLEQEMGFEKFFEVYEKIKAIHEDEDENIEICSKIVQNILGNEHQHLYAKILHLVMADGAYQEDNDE
- applied_conditions: at 1 µM
- Description: GSK_PKIS: NEK1 mean inhibition at 1 uM [Nanosyn]
Consider the following molecules; for each one, report its inhibition.
Give just the number in %; leave the unit off.

// lookup inhibition for [O-][S+]1CCN(Cc2ccc(-c3ccc4ncnc(Nc5ccc(OCc6ccccc6)c(Cl)c5)c4c3)o2)CC1
0.52

Return reported inhibition; argument: NS(=O)(=O)c1ccc(N/N=C2\C(=O)Nc3ccc(Cl)cc32)cc1
3.33

Entry CN(C)C(=O)O[C@@H]1CN[C@@H](C#Cc2cc3ncnc(Nc4ccc(OCc5cccc(F)c5)c(Cl)c4)c3s2)C1 : reported inhibition = ?
0.34

Please look up its inhibition: NC(=O)c1cccc(Nc2nccc(Nc3cccc(F)c3)n2)c1
5.37

Please look up its inhibition: Nc1nccc(C#Cc2cncnc2Nc2ccc(OCc3cccc(F)c3)c(Cl)c2)n1
3.18

Quick one: inhibition of CCS(=O)(=O)c1ccc(OC)c(Nc2ncc(-c3cccc(OC)c3)o2)c1 ?
1.45

Need inhibition, item c1ccc(Cc2nc3ccc(Nc4ncnc5ccccc45)cc3[nH]2)cc1
6.65

Given the molecule CS(=O)(=O)CCNCc1nc(-c2ccc3ncnc(Nc4ccc(OCc5cccc(C(F)(F)F)c5)cc4)c3c2)cs1 , what is its reported inhibition?
3.9

Look up inhibition for this molecule: OCc1ccc(-c2nc(-c3ccccn3)c(-c3ccc4c(c3)OCO4)[nH]2)cc1
2.95

====

- study_system: Mitogen-activated protein kinase 14 (Homo sapiens) (UniProt Q16539);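 also: values are mean percent inhibition of p38α kinase from the GSK PKIS published kinase inhibitor set screen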
- Sequence (Q16539 whole entry): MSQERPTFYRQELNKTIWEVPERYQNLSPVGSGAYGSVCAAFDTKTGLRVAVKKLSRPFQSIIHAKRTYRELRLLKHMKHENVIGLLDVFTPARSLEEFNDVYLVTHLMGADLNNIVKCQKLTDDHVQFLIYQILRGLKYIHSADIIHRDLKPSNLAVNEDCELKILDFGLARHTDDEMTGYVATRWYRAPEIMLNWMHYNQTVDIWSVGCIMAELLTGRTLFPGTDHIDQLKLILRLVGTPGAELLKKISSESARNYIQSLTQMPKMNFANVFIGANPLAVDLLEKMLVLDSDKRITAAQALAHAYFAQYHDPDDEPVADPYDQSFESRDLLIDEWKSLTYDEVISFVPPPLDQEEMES
- applied_conditions: at 0.1 µM
Would you mind telling me the reported inhibition of each entry?
Response body: numeric value in %, unit text excluded.

Requested read-out: inhibition. Entry: NS(=O)(=O)c1ccc(-c2cc3ccncc3cc2OCc2ccccc2)cc1
7.07

Find the recorded inhibition belonging to N#Cc1cccc(Nc2nccc(-c3cnn4ncccc34)n2)c1 and report it.
3.74

# query: inhibition of entry CCCN1CCCC(c2ccc(Nc3nc(Nc4cc(F)ccc4C(N)=O)c4cc[nH]c4n3)c(OC)c2)C1 (stereo unspecified)
13.9

inhibition lookup needed for Nc1nccc(-c2c(-c3ccc(F)cc3)ncn2CCCN2CCOCC2)n1 , thanks.
21.2

Form field: reported inhibition of [O-][S+]1CCN(Cc2ccc(-c3ccc4ncnc(Nc5ccc(OCc6ccccc6)c(Cl)c5)c4c3)o2)CC1
16.9

# inhibition lookup, item Cc1cc(Cl)cc2c1NC(=O)C2=NNc1ccc(S(N)(=O)=O)cc1
-2.89

Using the record for Cc1cc(-c2ccccn2)cc(C)c1/C=C/c1cncc(-c2nn[nH]n2)c1 , report its inhibition.
7.59

I have this compound here, CC(C)c1ccc2c(c1)NC(=O)/C2=N/Nc1ccc(S(N)(=O)=O)cc1 , and I need its recorded inhibition.
0.75

Which inhibition value is on record for COC(=O)c1ccc2c(c1)C(=Cc1cc(Br)c(O)c(Br)c1)C(=O)N2 ?
5.88

So what does the record say about inhibition for COc1cccc(-n2ncc3c(N/N=C/c4ccc(S(C)(=O)=O)cc4)ncnc32)c1 ?
-3.8

Need inhibition, item OCc1ccc(-c2nc(-c3ccccn3)c(-c3ccc4c(c3)OCO4)[nH]2)cc1
4.43

Tell me the measured inhibition of COC(=O)Nc1nc2cc(Oc3ccc(NC(=O)Nc4cccc(Br)c4)cc3)ccc2[nH]1 , please.
7.25

I'd like to know its inhibition. The compound in question is CCn1c(-c2nonc2N)nc2c(C#CC(C)(C)O)nc(OCCNC)cc21
6.16

Given the entry CN1CCN(C(=O)c2ccc(NC(=O)Nc3ccc(N(C)c4ccnc(Nc5ccc(CS(C)(=O)=O)cc5)n4)cc3)cc2)CC1 , report its measured inhibition.
3.65

Requested read-out: inhibition. Entry: O=S(=O)(CCOCc1ccc(-c2ccc3ncnc(Nc4ccc(OCc5cccc(F)c5)c(Cl)c4)c3c2)o1)c1ccccc1
0.07

Requested field: inhibition. Item: CN(c1ccc(NC(=O)Nc2ccc(OC(F)(F)F)cc2)cc1)c1ccnc(Nc2cccc(S(N)(=O)=O)c2)n1
4.8

Reported inhibition for COc1cc2ncnc(Nc3ccc(C)c(O)c3)c2cc1OC : what is it?
5.71

# query: inhibition of entry Cc1ccc(C(=O)NC2CC2)cc1-c1ccc2[nH]ncc2c1
3.93

Which inhibition reading was recorded for the compound Cc1ccc2c(-c3ccnc(Nc4ccc5c(c4)OCCO5)n3)c(-c3ccc(C(F)(F)F)cc3)nn2n1 ?
3.33

For C[C@@H](Oc1cc(-n2cnc3ccc(OC[C@@H](O)CO)cc32)sc1C(N)=O)c1ccccc1Cl , what is its reported inhibition?
2.66

Item ON=C1CCc2cc(-c3nc(C4CCNCC4)[nH]c3-c3ccncc3)ccc21 has what recorded inhibition?
25.4

====

- study_system: Aurora kinase A (Homo sapiens) (UniProt O14965);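 also: values are mean percent inhibition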
- Sequence (whole entry): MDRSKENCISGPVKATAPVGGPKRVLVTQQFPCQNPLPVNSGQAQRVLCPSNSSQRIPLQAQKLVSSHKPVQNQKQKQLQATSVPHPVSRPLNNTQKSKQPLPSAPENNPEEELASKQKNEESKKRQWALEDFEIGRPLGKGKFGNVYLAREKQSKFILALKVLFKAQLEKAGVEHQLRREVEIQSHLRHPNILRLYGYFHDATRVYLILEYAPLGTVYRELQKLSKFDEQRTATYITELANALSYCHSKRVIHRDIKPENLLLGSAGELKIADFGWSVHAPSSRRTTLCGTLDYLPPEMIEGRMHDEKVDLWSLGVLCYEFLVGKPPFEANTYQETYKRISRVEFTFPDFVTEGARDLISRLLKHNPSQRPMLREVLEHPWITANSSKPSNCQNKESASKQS
- applied_conditions: at 1 µM
Please respond with reported inhibition for every item in the list.
Write the number in % without appending the unit.

Look up inhibition: COc1cccc(-n2ncc3c(N/N=C/c4ccc(C)cc4)ncnc32)c1
11.8

Which measured inhibition value corresponds to COc1ccc(-c2nn3ncccc3c2-c2ccnc(Nc3cccc(C(F)(F)F)c3)n2)cc1 ?
5.62

Consider the compound Nc1ccc(C#Cc2cncnc2Nc2ccc(OCc3cccc(F)c3)c(Cl)c2)cc1 and give its measured inhibition.
0.03

Look up inhibition for this compound: CS(=O)(=O)Nc1cccc(-c2ccc3c(NC(=O)C4CC4)n[nH]c3c2)c1
12.4

Please report the recorded inhibition for Cc1ccc2c(c1)/C(=N/Nc1ccc(S(N)(=O)=O)cc1)C(=O)N2 .
27.8

Suppose we examine the compound CN(c1ccc(NC(=O)Nc2ccc(OC(F)(F)F)cc2)cc1)c1ccnc(Nc2cccc(S(N)(=O)=O)c2)n1 ; what inhibition value has been reported?
76.8

// inhibition lookup, key: COc1cc2ncnc(Nc3ccc4c(cnn4Cc4ccccc4)c3)c2cc1OC
7.82

Which inhibition is reported for this compound? Cc1ccc2c(-c3ccnc(Nc4ccc5c(c4)OCCO5)n3)c(-c3ccc(C(F)(F)F)cc3)nn2n1
0.25

Can you share its inhibition? I mean this compound: Cc1ccc(C(=O)NC2CC2)cc1-c1ccc2[nH]ncc2c1
-1.72

Given the entry CC(C)c1ccc(Nc2nccc(-c3cnn4ncccc34)n2)cc1 , report its measured inhibition.
65.8

Need inhibition, item ON=C1CCc2cc(-c3nc(C4CCNCC4)[nH]c3-c3ccncc3)ccc21
2.73

Reported inhibition, compound NS(=O)(=O)c1ccc(Nc2cc(-c3cccc(O)c3)n[nH]2)cc1 : ____
17.2

Fill blank: measured inhibition of the compound Cc1nc(-c2ccccc2)n2nc(NCCCN3CCOCC3)ncc12 is ____.
5.63

Field request: inhibition | item: COc1cccc(-n2ncc3c(N/N=C/c4ccc(S(C)(=O)=O)cc4)ncnc32)c1
28.4

Given the compound CN(C)c1cc2c(Nc3ccc4c(cnn4Cc4ccccc4)c3)ncnc2cn1 , what is its reported inhibition?
12.8

Requested read-out: inhibition. Entry: c1ccc(Nc2ncc(-c3ccccc3)o2)cc1
15.2

Item under review: CCS(=O)(=O)c1ccc(OC)c(Nc2ncc(-c3cccc(OC)c3)o2)c1 . Reported inhibition?
34.5

Look up inhibition: COc1cc2ncnc(Nc3ccc(C)c(O)c3)c2cc1OC
7.23

Would you mind telling me what inhibition value was observed for COc1cc(/C=N/Nc2ncnc3c2cnn3C(C)C)ccc1O ?
37.7

Requested field: inhibition. Item: Nc1nccc(C#Cc2cncnc2Nc2ccc(OCc3cccc(F)c3)c(Cl)c2)n1
15.2

What value of measured inhibition is listed for NS(=O)(=O)c1cccc(-c2cc3ccncc3cc2OCc2ccccc2)c1 ?
16.9
